assay: Bidirectional transport of API and TMS-NLCs across cell monolayers; format: in vitro ADME, canine; conditions: dog; MDCK; with verapamil (100 µM); 10 µg/mL, 4 h, 37 °C

- SMILES REPRESENTATION: "CC[C@H]1OC(=O)C[C@@H](O)[C@H](C)[C@@H](O[C@@H]2O[C@H](C)[C@@H](O)[C@H](N(C)C)[C@H]2O)[C@@H](CCN2C[C@H](C)C[C@H](C)C2)C[C@@H](C)C(=O)/C=C/C(C)=C/[C@@H]1CO[C@@H]1O[C@H](C)[C@@H](O)[C@@H](OC)[C@H]1OC"
  Papp A→B at 4 h, 10 µg/mL: "0.38 ×10⁻⁶ cm/s"
